Species: Rattus norvegicus
Assay: Compound was tested for the inhibition of [3H]DA reuptake into dopamine transporter in rat striatal tissue
Type: functional, Striatum
reported_metric: pKi
On this scale, pKi is minus log10 of a concentration expressed in M (mol/L).

pKi recorded for this molecule, N=c1scc(-c2ccc(Cl)cc2)n1-c1ccccc1N1CCOCC1 , is 4.12

----------
Assignment: determine reported Ki for the given molecules.

Entry Cc1cc(-n2c(-c3c(F)cccc3F)csc2=N)ccc1Cl , tested on Sodium-dependent dopamine transporter (Rattus norvegicus), has a reported Ki of 48 nM

Entry CC1C(=O)N=CC(c2ccccc2)=C1c1ccccc1 (stereo not given) , tested on Sodium-dependent dopamine transporter (Rattus norvegicus), has a reported Ki of > 1000 nM

Entry Cc1cc(-c2csc(=N)n2-c2ccc(Cl)cc2)ccc1Cl , tested on Sodium-dependent dopamine transporter (Rattus norvegicus), has a reported Ki of 24 nM

Entry N=c1scc(-c2ccc(Cl)cc2)n1-c1cccc(C(F)(F)F)c1 , tested on Sodium-dependent dopamine transporter (Rattus norvegicus), has a reported Ki of 86 nM

Entry N=c1scc(-c2ccc(Cl)cc2)n1-c1ccccc1N1CCOCC1 , tested on Sodium-dependent dopamine transporter (Rattus norvegicus), has a reported Ki of 42000 nM

----------
Species on record: Rattus norvegicus
Experiment: Compound was tested for the inhibition of [3H]-DA reuptake into rat striatal tissue
Type: functional, Striatum
reported_metric: pKi
On this scale, pKi is minus log10 of a concentration expressed in M (mol/L).

pKi recorded for this compound, N=c1scc(-c2ccc(Cl)cc2)n1-c1ccc(Cl)cc1Cl , is 6.60

pKi recorded for this compound, N=c1scc(-c2ccc(Cl)cc2)n1-c1cccc(C(F)(F)F)c1 , is 7.00

pKi recorded for this compound, Cc1cc(-n2c(-c3c(F)cccc3F)csc2=N)ccc1Cl , is 6.99

pKi recorded for this compound, N=c1scc(-c2ccc(Br)cc2)n1-c1cccc(C(F)(F)F)c1 , is 6.92

pKi recorded for this compound, Cc1ccc(-c2csc(=N)n2-c2ccc(Cl)cc2)cc1 , is 6.77

pKi recorded for this compound, N=c1scc(-c2ccc(Cl)cc2)n1-c1ccccc1F , is 6.68

pKi recorded for this compound, Cc1cc(-c2csc(=N)n2-c2ccc(Cl)cc2)ccc1Cl , is 7.64

----------
Assignment: determine reported Selectivity ratio for the given compounds.
Target: Monoamine transporters; serotonin & dopamine (Rattus norvegicus) (UniProt P31652+P23977)
Sequence (P23977 whole entry, looked up, one chain of several): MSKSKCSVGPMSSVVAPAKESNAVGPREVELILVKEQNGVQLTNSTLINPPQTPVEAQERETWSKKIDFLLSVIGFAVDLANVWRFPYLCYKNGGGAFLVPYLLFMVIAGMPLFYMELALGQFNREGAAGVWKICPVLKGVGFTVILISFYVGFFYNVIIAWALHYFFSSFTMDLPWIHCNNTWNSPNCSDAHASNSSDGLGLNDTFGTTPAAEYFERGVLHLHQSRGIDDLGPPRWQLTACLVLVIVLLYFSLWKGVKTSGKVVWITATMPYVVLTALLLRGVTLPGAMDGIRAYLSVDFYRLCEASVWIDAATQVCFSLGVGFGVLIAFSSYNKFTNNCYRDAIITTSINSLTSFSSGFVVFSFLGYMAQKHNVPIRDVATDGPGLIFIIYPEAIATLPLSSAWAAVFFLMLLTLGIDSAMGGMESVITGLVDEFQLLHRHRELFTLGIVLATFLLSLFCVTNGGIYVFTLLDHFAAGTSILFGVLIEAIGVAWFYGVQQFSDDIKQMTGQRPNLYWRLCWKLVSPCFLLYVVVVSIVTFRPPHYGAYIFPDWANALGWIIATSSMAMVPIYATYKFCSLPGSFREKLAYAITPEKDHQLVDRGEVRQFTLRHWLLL
Experiment: Selectivity ratio towards Serotonin and to that of dopamine transporter
Type: protein assay
// no unit, no text: just the number

Selectivity ratio recorded for this compound, Cc1cc(-c2csc(=N)n2-c2ccc(Cl)cc2)ccc1Cl , is 9.4

Selectivity ratio recorded for this compound, N=c1scc(-c2ccc(Br)cc2)n1-c1cccc(C(F)(F)F)c1 , is 0.56

Selectivity ratio recorded for this compound, N=c1scc(-c2ccc(Cl)cc2)n1-c1ccc(Cl)cc1Cl , is 3.32

Selectivity ratio recorded for this compound, N=c1scc(-c2ccc(Cl)cc2)n1-c1ccccc1N1CCOCC1 , is 0.006

Selectivity ratio recorded for this compound, Cc1cc(-n2c(-c3c(F)cccc3F)csc2=N)ccc1Cl , is 4.25

Selectivity ratio recorded for this compound, N=c1scc(-c2ccc(Cl)cc2)n1-c1ccccc1F , is 6.69

Selectivity ratio recorded for this compound, Cc1ccc(-c2csc(=N)n2-c2ccc(Cl)cc2)cc1 , is 15.3

Selectivity ratio recorded for this compound, N=c1scc(-c2ccc(Cl)cc2)n1-c1cccc(C(F)(F)F)c1 , is 3.94

----------
Target: Sodium-dependent serotonin transporter (Rattus norvegicus, UniProt P31652)
Sequence (P31652 whole entry): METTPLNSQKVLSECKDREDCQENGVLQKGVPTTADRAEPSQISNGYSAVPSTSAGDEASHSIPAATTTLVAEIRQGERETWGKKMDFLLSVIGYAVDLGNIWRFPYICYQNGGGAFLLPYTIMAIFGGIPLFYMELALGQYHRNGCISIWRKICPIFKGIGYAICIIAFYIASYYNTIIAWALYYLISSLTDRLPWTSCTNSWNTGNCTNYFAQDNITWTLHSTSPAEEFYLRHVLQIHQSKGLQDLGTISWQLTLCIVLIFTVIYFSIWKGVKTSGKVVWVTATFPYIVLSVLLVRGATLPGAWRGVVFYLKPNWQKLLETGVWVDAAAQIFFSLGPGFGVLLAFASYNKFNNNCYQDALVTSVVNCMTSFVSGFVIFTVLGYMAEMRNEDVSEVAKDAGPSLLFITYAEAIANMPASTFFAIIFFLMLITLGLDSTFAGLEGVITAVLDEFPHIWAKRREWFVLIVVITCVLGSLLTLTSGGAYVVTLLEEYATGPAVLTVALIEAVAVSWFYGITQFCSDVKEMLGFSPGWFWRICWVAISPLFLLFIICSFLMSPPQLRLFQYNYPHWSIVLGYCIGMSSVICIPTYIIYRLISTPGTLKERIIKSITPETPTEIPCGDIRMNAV
Test: Compound was tested for the inhibition of serotonin [3H]SER reuptake into rat forebrain membranes
Type: cell membranes, Membrane
reported_metric: pKi
On this scale, pKi is minus log10 of a concentration expressed in M (mol/L).

pKi recorded for this compound, N=c1scc(-c2ccc(Cl)cc2)n1-c1ccccc1F , is 5.85

pKi recorded for this compound, N=c1scc(-c2ccc(Br)cc2)n1-c1cccc(C(F)(F)F)c1 , is 7.17

pKi recorded for this compound, N=c1scc(-c2ccc(Cl)cc2)n1-c1ccccc1N1CCOCC1 , is 6.37

pKi recorded for this compound, Cc1ccc(-c2csc(=N)n2-c2ccc(Cl)cc2)cc1 , is 5.58

pKi recorded for this compound, N=c1scc(-c2ccc(Cl)cc2)n1-c1ccc(Cl)cc1Cl , is 6.07

pKi recorded for this compound, Cc1cc(-n2c(-c3c(F)cccc3F)csc2=N)ccc1Cl , is 6.36

pKi recorded for this compound, N=c1scc(-c2ccc(Cl)cc2)n1-c1cccc(C(F)(F)F)c1 , is 6.40

pKi recorded for this compound, Cc1cc(-c2csc(=N)n2-c2ccc(Cl)cc2)ccc1Cl , is 6.65

----------
Target: UniProt Q9WTR4
Sequence (Q9WTR4 as listed by the source): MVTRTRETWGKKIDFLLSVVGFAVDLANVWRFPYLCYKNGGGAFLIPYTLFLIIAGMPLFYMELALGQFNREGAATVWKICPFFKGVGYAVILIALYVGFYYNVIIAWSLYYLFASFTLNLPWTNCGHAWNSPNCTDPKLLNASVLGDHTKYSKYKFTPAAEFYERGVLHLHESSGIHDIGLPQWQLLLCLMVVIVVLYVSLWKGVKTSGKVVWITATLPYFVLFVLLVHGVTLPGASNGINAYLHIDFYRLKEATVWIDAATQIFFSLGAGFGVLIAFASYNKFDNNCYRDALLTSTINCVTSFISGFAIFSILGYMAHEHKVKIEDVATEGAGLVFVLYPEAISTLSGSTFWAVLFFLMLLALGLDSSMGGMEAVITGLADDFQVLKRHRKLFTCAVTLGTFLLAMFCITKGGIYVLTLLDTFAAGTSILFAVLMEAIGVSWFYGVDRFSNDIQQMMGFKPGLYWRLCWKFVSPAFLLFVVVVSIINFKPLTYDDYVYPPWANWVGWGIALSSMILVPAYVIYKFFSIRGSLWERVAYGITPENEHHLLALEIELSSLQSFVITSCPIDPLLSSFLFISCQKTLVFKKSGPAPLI
Assay: Selectivity ratio towards Norepinephrine and to that of serotonin transporter
Kind request: treat 0.2 as inclusive, so Selectivity ratio at 0.2 or higher is label 1, anything lower is label 0.

Reported Selectivity ratio at or above 0.2? N=c1scc(-c2ccc(Br)cc2)n1-c1cccc(C(F)(F)F)c1
label 1

Reported Selectivity ratio at or above 0.2? N=c1scc(-c2ccc(Cl)cc2)n1-c1cccc(C(F)(F)F)c1
label 0

Reported Selectivity ratio at or above 0.2? Cc1ccc(-c2csc(=N)n2-c2ccc(Cl)cc2)cc1
label 1

Reported Selectivity ratio at or above 0.2? N=c1scc(-c2ccc(Cl)cc2)n1-c1ccc(Cl)cc1Cl
label 0

Reported Selectivity ratio at or above 0.2? N=c1scc(-c2ccc(Cl)cc2)n1-c1ccccc1N1CCOCC1
label 1

Reported Selectivity ratio at or above 0.2? N=c1scc(-c2ccc(Cl)cc2)n1-c1ccccc1F
label 0

Reported Selectivity ratio at or above 0.2? Cc1cc(-c2csc(=N)n2-c2ccc(Cl)cc2)ccc1Cl
label 1

----------
Target: UniProt:Q9WTR4
Experiment: Selectivity ratio towards Norepinephrine and to that of dopamine transporter
Friendly reminder: Selectivity ratio below 0.6 is T, at or above is F.

Answer whether the molecule Cc1ccc(-c2csc(=N)n2-c2ccc(Cl)cc2)cc1 has Selectivity ratio strictly less than 0.6
F

Answer whether the molecule N=c1scc(-c2ccc(Cl)cc2)n1-c1ccc(Cl)cc1Cl has Selectivity ratio strictly less than 0.6
T

Answer whether the molecule Cc1cc(-n2c(-c3c(F)cccc3F)csc2=N)ccc1Cl has Selectivity ratio strictly less than 0.6
F

Answer whether the molecule N=c1scc(-c2ccc(Cl)cc2)n1-c1ccccc1N1CCOCC1 has Selectivity ratio strictly less than 0.6
T

Answer whether the molecule N=c1scc(-c2ccc(Cl)cc2)n1-c1ccccc1F has Selectivity ratio strictly less than 0.6
T

Answer whether the molecule N=c1scc(-c2ccc(Cl)cc2)n1-c1cccc(C(F)(F)F)c1 has Selectivity ratio strictly less than 0.6
T

Answer whether the molecule Cc1cc(-c2csc(=N)n2-c2ccc(Cl)cc2)ccc1Cl has Selectivity ratio strictly less than 0.6
F

Answer whether the molecule N=c1scc(-c2ccc(Br)cc2)n1-c1cccc(C(F)(F)F)c1 has Selectivity ratio strictly less than 0.6
F

All values here come from ChEMBL document CHEMBL1135173.
